The reader will find reported pIC50 values listed item by item below.
# TARGET UNDER TEST: human phosphodiesterase-3A (Homo sapiens (Human), UniProt Q14432)
# Sequence (Q14432 whole entry): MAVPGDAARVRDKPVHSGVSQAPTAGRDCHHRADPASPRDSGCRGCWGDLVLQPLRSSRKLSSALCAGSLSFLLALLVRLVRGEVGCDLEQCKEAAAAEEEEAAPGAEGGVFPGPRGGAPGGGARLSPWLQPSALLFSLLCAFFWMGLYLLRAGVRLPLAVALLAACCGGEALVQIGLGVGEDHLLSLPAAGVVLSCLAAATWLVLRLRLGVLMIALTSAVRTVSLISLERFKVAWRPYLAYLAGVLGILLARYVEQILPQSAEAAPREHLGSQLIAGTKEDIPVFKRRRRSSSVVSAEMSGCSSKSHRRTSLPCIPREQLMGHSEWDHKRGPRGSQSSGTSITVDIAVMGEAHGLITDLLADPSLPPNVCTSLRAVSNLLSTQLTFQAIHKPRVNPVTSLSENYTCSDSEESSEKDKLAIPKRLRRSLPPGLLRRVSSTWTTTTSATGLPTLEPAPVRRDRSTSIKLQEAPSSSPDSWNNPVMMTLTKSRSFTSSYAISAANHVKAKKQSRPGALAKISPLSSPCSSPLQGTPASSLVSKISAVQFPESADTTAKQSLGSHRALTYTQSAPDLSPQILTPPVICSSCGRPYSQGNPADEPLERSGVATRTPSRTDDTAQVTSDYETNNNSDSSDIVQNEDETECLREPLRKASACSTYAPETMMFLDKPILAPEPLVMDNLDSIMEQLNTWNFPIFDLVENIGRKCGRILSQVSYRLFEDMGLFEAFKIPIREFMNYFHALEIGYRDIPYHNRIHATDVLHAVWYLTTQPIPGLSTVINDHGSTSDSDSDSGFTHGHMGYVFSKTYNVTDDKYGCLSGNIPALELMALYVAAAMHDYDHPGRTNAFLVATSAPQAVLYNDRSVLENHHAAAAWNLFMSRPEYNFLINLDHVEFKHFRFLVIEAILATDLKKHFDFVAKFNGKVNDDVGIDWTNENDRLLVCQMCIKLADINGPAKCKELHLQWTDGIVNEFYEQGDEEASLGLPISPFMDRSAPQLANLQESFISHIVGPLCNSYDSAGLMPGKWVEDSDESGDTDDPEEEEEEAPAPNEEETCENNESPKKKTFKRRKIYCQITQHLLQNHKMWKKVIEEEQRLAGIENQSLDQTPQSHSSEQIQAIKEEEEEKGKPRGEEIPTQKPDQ
# EXPERIMENT NOTES: PDE3 Assay
# RECORDED CONDITIONS: human recombinant enzyme expressed in Sf9 cells; formation of 5'AMP from cAMP
pIC50: −log10 of the molar value.

## Task Fill in the blank: the reported pIC50 of O=C(O)c1ccc2nc(CN3C[C@@H]4[C@H](C3)[C@H]4c3cccc(OCc4ccc(Cl)cc4F)n3)n(C[C@@H]3CCO3)c2c1 is ____.
## Result < 4.00

Others:
## Task Quick one: pIC50 for COc1cc(C(=O)O)cc2c1nc(CN1C[C@@H]3[C@H](C1)[C@H]3c1nc(OCc3ccc(Cl)cc3F)ccc1C)n2C[C@@H]1CCO1 ?
## Result < 4.00

## Task What value of measured pIC50 is listed for CCn1cncc1Cn1c(CN2C[C@@H]3[C@H](C2)[C@H]3c2nc(OCc3ccc(Cl)cc3F)ccc2F)nc2c(OC)cc(C(=O)O)cc21 ?
## Result < 4.00
